# assay-system: IRAK4 (Homo sapiens, UniProt Q9NWZ3)
# Construct: endogenous in cells; host or cells: THP-1 cells
# Sequence (Q9NWZ3 1-460): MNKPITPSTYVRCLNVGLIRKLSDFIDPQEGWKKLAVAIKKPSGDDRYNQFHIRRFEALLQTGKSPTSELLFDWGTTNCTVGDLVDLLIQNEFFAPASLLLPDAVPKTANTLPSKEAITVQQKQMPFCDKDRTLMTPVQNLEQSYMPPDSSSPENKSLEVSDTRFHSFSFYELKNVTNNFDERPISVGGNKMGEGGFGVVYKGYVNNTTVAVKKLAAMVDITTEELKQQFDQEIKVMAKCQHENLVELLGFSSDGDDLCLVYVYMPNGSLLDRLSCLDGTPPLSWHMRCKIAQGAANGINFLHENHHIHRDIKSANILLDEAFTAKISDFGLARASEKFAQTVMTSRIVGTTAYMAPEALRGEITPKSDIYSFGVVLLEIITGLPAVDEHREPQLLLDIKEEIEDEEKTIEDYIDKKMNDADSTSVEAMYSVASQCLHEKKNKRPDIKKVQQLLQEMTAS
# test-method-notes: LVL THP1 HTRF (THP1 Homogeneous Time Resolved Fluorescence)
# Format: cell-based
# recorded-conditions: THP1 cells, 18 h incubation with compound
The label depends only on LVL THP1 HTRF YMIN: Met if it is at least 10%, Not met if it is smaller.

Worked examples follow.
compound="C[C@@H]1CN(CCC2CCC(c3cn(-c4cnc(-n5ncc6cc(C#N)cnc65)cc4NC4(C#N)CC4)nn3)CC2)[C@@H](C)CN1c1ccc([C@@]2(C)CCC(=O)NC2=O)cc1 (some centres unmarked)" label_class=Met
compound="C[C@H](C#N)Nc1cc(-n2ncc3cc(C#N)cnc32)ncc1-n1cc(C2CCC(N3CCN(c4ccc(N5CCC(=O)NC5=O)cc4)CC3)CC2)nn1 (some centres unmarked)" label_class=Met
compound="C[C@H](C#N)Nc1cc(-n2ncc3cc(C#N)cnc32)ncc1-n1cc([C@H]2CC[C@](O)(CCN3CCN(c4ccc([C@@]5(C)CCC(=O)NC5=O)cn4)CC3)CC2)nn1 (single isomer, unassigned) [P-426]" label_class=Met
compound="C[C@H]1CN(c2ccc([C@@]3(C)CCC(=O)NC3=O)cc2)C[C@H](C)N1CCC1CCC(c2cn(-c3cnc(-n4ncc5cc(C#N)cnc54)cc3NC3(C#N)CC3)nn2)CC1 (some centres unmarked)" label_class="Not met"

query: Reported LVL THP1 HTRF YMIN reaches at least 10% for CC[C@H](C#N)Nc1cc(-n2ncc3cc(C#N)cnc32)ncc1-n1cc([C@H]2CC[C@H](CCN3CCN(c4ccc(C5CCC(=O)NC5=O)cc4)CC3)CC2)nn1 (stereo in doubt) ?
result: Not met

---

Exercise: state measured DC50 for each of the molecules provided.
# assay-system: IRAK4 (Homo sapiens, UniProt Q9NWZ3)
# Construct: endogenous in cells; host or cells: THP-1 cells
# test-method-notes: LVL THP1 HTRF (THP1 Homogeneous Time Resolved Fluorescence)
# Assay type: cell-based
# recorded-conditions: THP1 cells, 18 h incubation with compound, read-out: LVL THP1 HTRF EC50
Numbers only, in nM.

The following molecules have reported results that may help.
molecule="C[C@H](C#N)Nc1cc(-n2ncc3cc(C#N)cnc32)ncc1-n1cc(C2CCC(N3CCN(c4ccc(N5CCC(=O)NC5=O)cc4)CC3)CC2)nn1 (stereo partly drawn)" measured_number=172
molecule=Cc1cc(N2CCC(=O)NC2=O)ccc1N1CCN(CC[C@H]2CC[C@H](c3cn(-c4cnc(-n5ncc6cc(C#N)cnc65)cc4N[C@H](C)C#N)nn3)CC2)CC1 measured_number=27.6

// next item, DC50 requested
query: Write down the reported DC50 of C[C@H](C#N)Nc1cc(-n2ncc3cc(C#N)cnc32)ncc1-n1cc([C@H]2CC[C@H](CCN3CC[C@H]4[C@@H]3CCN4c3ccc([C@@]4(C)CCC(=O)NC4=O)cn3)CC2)nn1 (single isomer, unassigned) [P-313] , test system: IRAK4 (Homo sapiens, UniProt Q9NWZ3).
result: 244

---

# assay-system: IRAK4 (Homo sapiens, UniProt Q9NWZ3)
# Construct: endogenous in cells; host or cells: THP-1 cells
# test-method-notes: LVL THP1 HTRF (THP1 Homogeneous Time Resolved Fluorescence)
# Format: cell-based
# recorded-conditions: THP1 cells, 18 h incubation with compound, read-out: LVL THP1 HTRF EC50
Could you please report measured DC50 for the items listed next?
One number for each entry, in nM.

Example molecules with recorded DC50:
molecule=C[C@H](C#N)Nc1cc(-n2ncc3ccc(N4C[C@H]5C[C@@H]4CO5)nc32)ncc1-n1cc([C@H]2CC[C@H](CCN3CCN(c4ccc([C@@]5(C)CCC(=O)NC5=O)cc4)CC3)CC2)nn1 unit_spec=nM measured_number=191
molecule="C[C@H](C#N)Nc1cc(-n2ncc3cc(C#N)c(N)nc32)ncc1-n1cc([C@H]2CC[C@H](CCN3CCN(c4ccc([C@@]5(C)CCC(=O)NC5=O)nc4)[C@@H](C)C3)CC2)nn1 (single isomer, unassigned)" unit_spec=nM measured_number=92.8

Give DC50 for each listed item.
1. C[C@H](C#N)Nc1cc(-n2ncc3cc(C#N)cnc32)ncc1-n1cc([C@H]2CC[C@H](CCN3CCN(Cc4ccc(N5CCC(=O)NC5=O)cc4)CC3)CC2)nn1
2. CC1CN(CC[C@H]2CC[C@H](c3cn(-c4cnc(-n5ncc6cc(C#N)cnc65)cc4N[C@H](C)C#N)nn3)CC2)CCC1c1ccc([C@@]2(F)CCC(=O)NC2=O)cc1 (single isomer, unassigned) [P-332]

result:
1: 979; 2: 261

---

# assay-system: IRAK4 (Homo sapiens, UniProt Q9NWZ3)
# Construct: endogenous in cells
# test-method-notes: ALE THP1 HTRF (Advanced Lipoxidation End Product THP1 Homogeneous Time Resolved Fluorescence)
# recorded-conditions: THP1 cells
Exercise: state measured pEC50 for each of the compounds provided.
Numbers only, as −log10 of the molar value.

compound="CC(C)CNc1cc(-n2ncc3cc(C#N)cnc32)ncc1C(=O)NC1CCC(CCN2CCN(c3ccc(C4CCC(=O)NC4=O)cc3)CC2)CC1 (stereo not shown)" readout_label=pEC50 measured_number=7.52
compound="N#Cc1cnc2c(cnn2-c2cc(NC3CCCC3)c(C(=O)NC3CCC(CCN4CCC(c5ccc(C6CCC(=O)NC6=O)cc5)CC4)CC3)cn2)c1 (stereo not shown)" readout_label=pEC50 measured_number=6.37
compound="N#Cc1cnc2c(cnn2-c2cc(NC3CCCC3)c(C(=O)NC3CCC(C(=O)N4CCN(c5ccc6c(c5)C(=O)N(C5CCC(=O)NC5=O)C6)CC4)CC3)cn2)c1 (stereo not shown)" readout_label=pEC50 measured_number=7.06
compound="C[C@H](C#N)Nc1cc(-n2ncc3cc(C#N)cnc32)ncc1C(=O)N[C@H]1CC[C@H](CCN2C[C@H]3C[C@@H](C2)N3c2ccc(C3CCC(=O)NC3=O)cc2)CC1 (stereo partly shown)" readout_label=pEC50 measured_number=8.22
compound="C[C@H]1CN(c2ccc(C3CCC(=O)NC3=O)cc2)CCN1CCC1CCC(NC(=O)c2cnc(-n3ncc4cc(C#N)cnc43)cc2NC2CCCC2)CC1 (stereo partly shown)" readout_label=pEC50 measured_number=7.15

For each of the items listed, what is its pEC50?
1. C[C@H]1CN(c2ccc(C3CCC(=O)NC3=O)cc2)C[C@H](C)N1CCC1CCC(NC(=O)c2cnc(-n3ncc4cc(C#N)cnc43)cc2NC2CCCC2)CC1 (stereo partly shown)
2. C[C@H](C#N)Nc1cc(-n2ncc3cc(C#N)c(N)nc32)ncc1C(=O)N[C@H]1CC[C@H](CCN2CCN(c3ccc(C4CCC(=O)NC4=O)cc3Cl)[C@H](C)C2)CC1 (stereo partly shown)

result:
[7.47, 8.22]

---

# assay-system: IRAK4 (Homo sapiens)
# Construct: endogenous in cells; host or cells: THP-1 cells
# Sequence (Q9NWZ3 1-460): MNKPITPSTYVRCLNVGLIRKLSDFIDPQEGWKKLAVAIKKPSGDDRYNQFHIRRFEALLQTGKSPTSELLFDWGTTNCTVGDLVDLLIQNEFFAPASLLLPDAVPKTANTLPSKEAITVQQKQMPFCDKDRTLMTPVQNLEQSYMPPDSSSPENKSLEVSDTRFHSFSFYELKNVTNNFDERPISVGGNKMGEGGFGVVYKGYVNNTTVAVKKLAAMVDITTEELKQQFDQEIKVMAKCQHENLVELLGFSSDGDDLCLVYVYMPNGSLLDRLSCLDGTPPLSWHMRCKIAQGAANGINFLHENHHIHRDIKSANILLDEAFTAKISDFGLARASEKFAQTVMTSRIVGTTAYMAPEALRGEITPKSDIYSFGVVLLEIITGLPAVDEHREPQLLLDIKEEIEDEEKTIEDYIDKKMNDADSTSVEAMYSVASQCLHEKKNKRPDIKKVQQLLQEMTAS
# test-method-notes: LVL THP1 HTRF (THP1 Homogeneous Time Resolved Fluorescence)
# Format: cell-based
# recorded-conditions: THP1 cells, 18 h incubation with compound
Task for the reader: assign each of the following compounds its reported LVL THP1 HTRF YMIN.
Answers are plain numbers, in %.

compound="C[C@H](C#N)Nc1cc(-n2ncc3cc(C#N)cnc32)ncc1-n1cc([C@H]2CC[C@H](CCN3CCC(n4nc(N5CCC(=O)NC5=O)c5ccccc54)CC3)CC2)nn1 [P-351]" readout_label="LVL THP1 HTRF YMIN" measured_number=69.0
compound="C[C@H](C#N)Nc1cc(Nc2ncc(C#N)cc2F)ncc1-n1cc([C@H]2CC[C@H](CCN3CCN(c4ccc(N5CCC(=O)NC5=O)cc4)[C@H](C)C3)CC2)nn1 [P-385]" readout_label="LVL THP1 HTRF YMIN" measured_number=−1.9
compound="C[C@H](C#N)Nc1cc(-n2ncc3cc(C#N)cnc32)ncc1-n1cc([C@H]2CC[C@](O)(CCN3CCN(c4ccc([C@@]5(C)CCC(=O)NC5=O)nc4)CC3)CC2)nn1 (single isomer, unassigned) [P-280]" readout_label="LVL THP1 HTRF YMIN" measured_number=47.7
compound="C[C@H](C#N)Nc1cc(-n2ncc3cc(C#N)cnc32)ncc1C(=O)N[C@H]1CC[C@H](CCN2CC[C@@H](c3ccc([C@@]4(C)CCC(=O)NC4=O)cc3)C[C@@H]2C)CC1 [P-271]" readout_label="LVL THP1 HTRF YMIN" measured_number=9.9
compound="CC[C@@H]1CN(CC[C@H]2CC[C@H](c3cn(-c4cnc(-n5ncc6cc(C#N)cnc65)cc4N[C@H](C)C#N)nn3)CC2)CCN1c1ccc(N2CCC(=O)NC2=O)cc1 [P-441]" readout_label="LVL THP1 HTRF YMIN" measured_number=−0.1
compound="C[C@H](C#N)Nc1cc(-n2ncc3cc(C#N)cnc32)ncc1-n1cc([C@H]2CC[C@H](CCN3CCC(O)(c4ccc(C5CCC(=O)NC5=O)cc4)CC3)CC2)nn1 (stereo partly shown) [P-352]" readout_label="LVL THP1 HTRF YMIN" measured_number=2.1
compound="C[C@H](C#N)Nc1cc(-n2ncc3cc(C#N)cnc32)ncc1-n1cc([C@H]2CC[C@H](CCN3CCN(c4ccc(N5CCC(=O)NC5=O)cc4)CC3)CC2)nn1 [P-366]" readout_label="LVL THP1 HTRF YMIN" measured_number=2.0
compound="C[C@H](C#N)Nc1cc(-n2ncc3cc(C#N)c(N)nc32)ncc1C(=O)N[C@H]1CC[C@H](CCN2CCN(c3ccc(C4CCC(=O)NC4=O)c(Cl)c3)[C@H](C)C2)CC1 (stereo partly shown) [P-187]" readout_label="LVL THP1 HTRF YMIN" measured_number=1.4

Value sought for every listed compound: LVL THP1 HTRF YMIN.
1. C[C@H](C#N)Nc1cc(-n2ncc3cc(C#N)cnc32)ncc1C(=O)N[C@H]1CC[C@H](CCN2CCN(c3ccc(C4CCC(=O)NC4=O)cc3)C3(CC3)C2)CC1 (stereo partly shown) [P-191]
2. CC(F)(F)CNc1cc(-n2ncc3cc(C#N)cnc32)ncc1-n1cc(C2CCC(CCN3CCN(c4ccc(C5CCC(=O)NC5=O)cc4)CC3)CC2)nn1 (stereo not shown) [P-169]
3. C[C@H](C#N)Nc1cc(-n2ncc3cc(C#N)cnc32)ncc1-n1cc([C@H]2CC[C@H](CCN3CCC(c4ccc(N5CCC(=O)NC5=O)cn4)CC3)CC2)nn1 [P-345]

result:
[20.4, 3.0, 87.0]

# return LVL THP1 HTRF YMIN for each item in the list
1. CC1CN(CC[C@H]2CC[C@H](c3cn(-c4cnc(-n5ncc6cc(C#N)cnc65)cc4N[C@H](C)C#N)nn3)CC2)CCC1c1ccc([C@@]2(F)CCC(=O)NC2=O)cc1 (single isomer, unassigned) [P-331]
2. C[C@H](C#N)Nc1cc(-n2ncc3cc(C#N)cnc32)ncc1-n1cc([C@H]2CC[C@H](CCN3CCN(c4ccc(N5CCC(=O)NC5=O)cc4)C[C@@H]3C)CC2)nn1 [P-468]

result:
["−2.2", 2.3]
